Documented LD50 at 24 h across a set of compounds
experiment-notes: Acute toxicity
Format: in vivo
measurement-conditions: in vivo, po; mouse; p.o.; 24 hours after administration; read-out: Estimated LD₅₀ (mg/kg, p.o.)
measure-name: LD50 at 24 h

1. CN1C(=O)Cc2cnc(N3CCCCC3)nc21 [Compound 118] ... > 1000 mg/kg
2. CC(C)Nc1ncc2c(n1)N(C)C(=O)C2.Cl [Compound 102] ... > 1000 mg/kg
3. CN1Cc2nc(N3CCCCC3)ncc2C1=O [Compound 218] ... > 550 mg/kg
4. CN1C(=O)Cc2cnc(N3CCSCC3)nc21 [Compound 126] ... > 1000 mg/kg
5. CN1CCN(c2ncc3c(n2)N(C)C(=O)C3)CC1 [Compound 138] ... > 1000 mg/kg
6. CN(C)c1ncc2c(n1)N(C)C(=O)C2 [Compound 108] ... > 1000 mg/kg
7. CCN(CC)C(=O)N1CCN(c2ncc3c(n2)N(C)C(=O)C3)CC1 [Compound 132] ... > 1000 mg/kg
8. CN1C(=O)Cc2cnc(N3CCCC3)nc21 [Compound 112] ... > 1000 mg/kg
9. CN1C(=O)Cc2cnc(N3CCOCC3)nc21 [Compound 122] ... > 1000 mg/kg
10. CN1Cc2nc(N3CCCC3)ncc2C1=O [Compound 216] ... > 550 mg/kg
